# assay.system: human OAT3 (Homo sapiens, UniProt Q8TCC7)
# assay: Inhibition of OAT3-mediated 6-carboxyfluorescein
# condition.parameters: read-out: Ki (OAT3)
Structures can show the parent of a compound that is named as a salt.
endpoint: pKi
The value called pKi is obtained by taking minus log10 of the concentration in mol/L.

Task: Dear colleague, I am looking for the recorded pKi of the following compound: CC1=C(CC(=O)O)c2cc(F)ccc2/C1=C\c1ccc(S(C)(=O)=O)cc1
Output: 6.22

Task: Name the recorded pKi for C[C@H](C(=O)O)c1ccc2cc(O)ccc2c1 [(S)-O-desmethyl naproxen] .
Output: 5.46

Task: I'd like to know its pKi. The compound in question is CC(=O)C[C@@H](c1ccccc1)c1c(O)c2ccc(O)cc2oc1=O [(S)-7-hydroxy warfarin]
Output: 5.71

Task: Look up pKi: Cc1ccc(C(=O)c2ccc(CC(=O)O[C@@H]3O[C@H](C(=O)O)[C@@H](O)[C@H](O)[C@H]3O)n2C)cc1 [Tolmetin β-D-glucuronide]
Output: 5.53

Task: Quick one: pKi of C[C@]12CC[C@H](OS(=O)(=O)O)CC1=CC[C@@H]1[C@@H]2CC[C@]2(C)C(c3ccc[n+]([O-])c3)=CC[C@@H]12 [Abiraterone N-oxide sulfate] ?
Output: 5.87

Task: Would you kindly share the measured pKi for Cc1c(CC(=O)O)c2cc(O)ccc2n1C(=O)c1ccc(Cl)cc1 ?
Output: 6.57

Task: Report pKi for O=C(O)Cc1ccccc1Nc1c(Cl)cc(O)cc1Cl [4-Hydroxy diclofenac] please.
Output: 5.69

Task: I would be grateful if you could share the reported pKi for O=C1NC(=O)C(Cc2ccc(OCCNc3ccccn3)cc2)S1 (centres unmarked) .
Output: 5.94

Task: Quick one: pKi of CN1C(C(=O)Nc2ncc(C(=O)O)s2)=C(O)c2ccccc2S1(=O)=O ?
Output: 6.15

Task: Any idea what pKi was measured for COc1ccc(Cl)cc1C(=O)NCCc1ccc(S(=O)(=O)NC(=O)N[C@H]2CCC[C@@H](O)C2)cc1 (relative stereo) [3-cis-hydroxycyclohexyl glyburide] ?
Output: 6.09

Task: Any idea what pKi was measured for C[C@]12CC[C@H](OS(=O)(=O)O)CC1=CC[C@@H]1[C@@H]2CC[C@]2(C)C(c3cccnc3)=CC[C@@H]12 [Abiraterone sulfate] ?
Output: 5.74

Task: May I ask what pKi has been recorded for Cc1ccc(NC(=O)c2ccc(CN3CC[N+](C)([O-])CC3)cc2)cc1Nc1nccc(-c2cccnc2)n1 [Imatinib (piperidine)-4-oxide] ?
Output: 4.19

Task: pKi for COc1ccc2cc([C@H](C)C(=O)O[C@@H]3O[C@H](C(=O)O)[C@@H](O)[C@H](O)[C@H]3O)ccc2c1 [(S)-naproxen acyl-β-D-glucuronide] ?
Output: 5.27

* * *

For each of the molecules below, state its pKi.
# assay.system: human OAT1 (Homo sapiens)
# Sequence (Q4U2R8 1-563): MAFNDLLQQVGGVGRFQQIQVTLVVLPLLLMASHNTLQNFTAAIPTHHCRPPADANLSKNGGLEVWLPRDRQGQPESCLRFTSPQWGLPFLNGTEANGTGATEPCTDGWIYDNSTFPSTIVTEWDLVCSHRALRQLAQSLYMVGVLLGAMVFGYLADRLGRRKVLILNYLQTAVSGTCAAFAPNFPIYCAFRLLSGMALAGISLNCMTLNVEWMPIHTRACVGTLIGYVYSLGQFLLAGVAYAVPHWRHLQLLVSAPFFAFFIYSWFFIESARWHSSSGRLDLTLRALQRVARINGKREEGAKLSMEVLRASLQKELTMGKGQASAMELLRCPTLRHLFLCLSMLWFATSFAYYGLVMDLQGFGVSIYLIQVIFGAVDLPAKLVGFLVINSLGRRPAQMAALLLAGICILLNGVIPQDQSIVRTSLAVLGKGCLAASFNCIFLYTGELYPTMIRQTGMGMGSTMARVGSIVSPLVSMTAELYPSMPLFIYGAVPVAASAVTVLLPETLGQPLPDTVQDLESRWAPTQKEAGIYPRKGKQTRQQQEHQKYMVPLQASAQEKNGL
# assay: Inhibition of OAT1-mediated 6-carboxyfluorescein
Scale note: pKi = -log10(concentration in M).

Task: Dear colleague, I am looking for the recorded pKi of the following molecule: CC(=O)CC(c1ccccc1)c1c(O)c2ccccc2oc1=O (stereo not drawn) [Warfarin, reference compound]
Output: 4.80

Task: Report pKi for Cc1ccc(C(=O)c2ccc(CC(=O)O)n2C)cc1 [Tolmetin, reference compound] please.
Output: 5.52

Task: Query (molecule): CC(C(=O)O)c1cccc(C(=O)c2ccccc2)c1 (stereo not drawn) [Ketoprofen, reference compound] ; field requested: pKi
Output: 5.76

Task: Given the molecule CCCCc1nc(Cl)c(CO)n1Cc1ccc(-c2ccccc2-c2nn[nH]n2)cc1 [Losartan, reference compound] , what is its reported pKi?
Output: 4.94

Task: Fill blank: measured pKi of the molecule CC(C(=O)O)c1ccc(-c2ccccc2)c(F)c1 (stereo not drawn) [Flurbiprofen, reference compound] is ____.
Output: 5.72

Task: Endpoint output: pKi of CC(O)c1ccc(CCOc2ccc(CC3SC(=O)NC3=O)cc2)nc1 (stereo not drawn) [Hydroxy pioglitazone] . Value?
Output: 4.56

Task: What value of pKi has been reported for the following molecule? CN(CCOc1ccc(CC2SC(=O)NC2=O)cc1)c1ccccn1 (stereo not drawn) [Rosiglitazone, reference compound]
Output: 5.38

Task: Look at this molecule and give its reported pKi. Cc1cnc(NC(=O)C2=C(O)c3ccccc3S(=O)(=O)N2C)s1 [Meloxicam, reference compound]
Output: 5.16

Task: Please give the measured pKi for this molecule: O=c1n(CCCN2CCN(c3cccc(Cl)c3)CC2)nc2ccccn12 [Trazodone, reference compound]
Output: 4.70

* * *

# assay.system: human OAT3 (Homo sapiens)
# Sequence (Q8TCC7 1-542): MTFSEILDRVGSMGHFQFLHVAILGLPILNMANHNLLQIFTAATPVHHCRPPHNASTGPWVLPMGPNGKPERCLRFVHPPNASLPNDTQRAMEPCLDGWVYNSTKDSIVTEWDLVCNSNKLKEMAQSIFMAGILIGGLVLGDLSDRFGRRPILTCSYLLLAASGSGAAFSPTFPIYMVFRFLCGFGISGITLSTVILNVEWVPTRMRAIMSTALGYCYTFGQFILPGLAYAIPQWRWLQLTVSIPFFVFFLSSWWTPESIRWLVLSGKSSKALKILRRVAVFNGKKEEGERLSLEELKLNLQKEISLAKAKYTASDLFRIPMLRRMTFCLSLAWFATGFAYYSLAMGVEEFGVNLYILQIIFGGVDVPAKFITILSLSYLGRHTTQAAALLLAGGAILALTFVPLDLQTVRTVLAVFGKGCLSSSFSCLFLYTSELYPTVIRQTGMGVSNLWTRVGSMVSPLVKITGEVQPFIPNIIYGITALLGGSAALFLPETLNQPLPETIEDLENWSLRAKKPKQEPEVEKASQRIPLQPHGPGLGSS
# assay: cell-based
endpoint: log10 of Ki (log10 of the value in nM)
Values reflect log10 of reported Ki (nM).

Task: Which log10 of Ki value is on record for CC(O)c1ccc(CCOc2ccc(CC3SC(=O)NC3=O)cc2)nc1 (stereo not drawn) [Hydroxy pioglitazone] ?
Output: 3.14

Task: Which value of log10 of Ki has been reported for Cc1ccc(C(=O)c2ccc(CC(=O)O)n2C)cc1 [Tolmetin, reference compound] in the records?
Output: 2.91

Task: Query: log10 of Ki; subject: CSc1ccc(/C=C2/C(C)=C(CC(=O)O)c3cc(F)ccc32)cc1 [Sulindac sulfide]
Output: 2.82

Task: Quick check: log10 of Ki of CC1=C(CC(=O)O)c2cc(F)ccc2/C1=C\c1ccc([S+](C)[O-])cc1 (stereo not drawn) [Sulindac, reference compound] ?
Output: 3.22

Task: // query log10 of Ki value for entry CC(C(=O)O)c1ccc(-c2ccccc2)c(F)c1 (stereo not drawn) [Flurbiprofen, reference compound]
Output: 3.26

Task: # log10 of Ki lookup, item COc1ccc(Cl)cc1C(=O)NCCc1ccc(S(=O)(=O)NC(=O)NC2CCCCC2)cc1 [Glyburide, reference compound]
Output: 2.32

Task: Quick one: log10 of Ki of CCc1ccc(CCOc2ccc(CC3SC(=O)NC3=O)cc2)nc1 (stereo not drawn) [Pioglitazone, reference compound] ?
Output: 3.01

Task: Bench note: what log10 of Ki did COc1ccc2c(c1)c(CC(=O)O)c(C)n2C(=O)c1ccc(Cl)cc1 show?
Output: 2.04

Task: Fill blank: measured log10 of Ki of the compound Cc1cnc(NC(=O)C2=C(O)c3ccccc3S(=O)(=O)N2C)s1 [Meloxicam, reference compound] is ____.
Output: 2.73

Task: Which measured log10 of Ki value corresponds to CN(CCOc1ccc(CC2SC(=O)NC2=O)cc1)c1ccccn1 (stereo not drawn) [Rosiglitazone, reference compound] ?
Output: 2.77

Task: Suppose we examine the compound CCCCc1nc(Cl)c(C(=O)O)n1Cc1ccc(-c2ccccc2-c2nn[nH]n2)cc1 ; what log10 of Ki value has been reported?
Output: 2.00

Task: Returns the measured log10 of Ki for the input compound. Input: O=c1n(CCCN2CCN(c3cccc(Cl)c3)CC2)nc2ccccn12 [Trazodone, reference compound]
Output: 3.47

Task: Item CCCCc1nc(Cl)c(CO)n1Cc1ccc(-c2ccccc2-c2nn[nH]n2)cc1 [Losartan, reference compound] has what recorded log10 of Ki?
Output: 2.56

All values here come from paper PMC8177813.
